Would you mind telling me the reported protein stability index of each entry?
B1: KRT33B (parent)
chain: YQSYFKTIEELQQKILCSKSENAR

variants of: B1; assay: protein stability index of a GFP-peptide fusion (GPS, HEK-293T) (PSI 1-6); higher = more stable; conditions: c terminus: a fixed tail appended;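 note: lentivirally expressed fusions sorted by FACS into six bins by GFP to DsRed ratio, PSI derived from sequencing read proportions per bin multiplied by bin number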

Req: // protein stability index lookup, key: `Q2K`
Resp: 3.17

Req: protein stability index lookup needed for `S3C` , thanks.
Resp: 2.11

Req: Look at this variant and give its reported protein stability index. `S18Y`
Resp: 2.21

Req: Give the measured protein stability index of `E10R` .
Resp: 1.89

Req: Item under review: `N22M` . Reported protein stability index?
Resp: 1.93

Req: I have this variant here, `Q2W` , and I need its recorded protein stability index.
Resp: 2.15

Req: Report protein stability index for `K14G` please.
Resp: 1.25

Req: What value of protein stability index has been reported for the following variant? `S3P`
Resp: 2.41

Req: Given the entry `Q12R` , report its measured protein stability index.
Resp: 2.11

Req: # query: protein stability index of entry `E21H`
Resp: 1.79

Req: What value of measured protein stability index is listed for `I15M` ?
Resp: 2.07

Req: Request the reported protein stability index associated with `N22G`
Resp: 1.99

Req: protein stability index lookup needed for `I8E` , thanks.
Resp: 3

Req: Query: protein stability index; subject: `K19Q`
Resp: 2.08

Req: # lookup: protein stability index of `F5C`
Resp: 2.16

Req: For the variant `L16H` , what protein stability index is on record?
Resp: 1.96

Req: Looking for the measured protein stability index of `Q12A` , can you help?
Resp: 2.78

Req: Which protein stability index value is on record for `S3N` ?
Resp: 1.79

Req: Given `E10V` , state its recorded protein stability index.
Resp: 2.28

Req: Request the reported protein stability index associated with `Y4K`
Resp: 1.5

Req: Give the measured protein stability index of `K19I` .
Resp: 1.71

Req: Reported protein stability index for `N22E` : what is it?
Resp: 1.89

Req: Reported protein stability index, variant `Y4F` : ____
Resp: 1.85

Req: State the recorded protein stability index for this entry: `R24I`
Resp: 1.79

Req: Entry under review: `S18L` . Reported protein stability index?
Resp: 1.79

Req: // protein stability index lookup, key: `I8W`
Resp: 1.94

Req: State the recorded protein stability index for this entry: `Y1K`
Resp: 2.88

Req: Look up protein stability index for this variant: `Q2E`
Resp: 3.37

Req: Can you look up the measured protein stability index of `K19D` for me?
Resp: 1.72

Req: Fill in: protein stability index of `N22Y` is ___
Resp: 1.86

Req: Look up protein stability index: `T7F`
Resp: 2.11

Req: Look up protein stability index for this variant: `I8C`
Resp: 1.84

Req: What value of measured protein stability index is listed for `T7Q` ?
Resp: 1.84

Req: Requested read-out: protein stability index. Entry: `N22R`
Resp: 1.49

Req: What protein stability index value was documented for this variant, `L11V` ?
Resp: 2.01

Req: Look up protein stability index for this variant: `E21I`
Resp: 1.6

Req: Which value of protein stability index has been reported for `E10C` in the records?
Resp: 1.72

Req: Need protein stability index of `Q13M` , thanks.
Resp: 1.4

Req: What measured protein stability index goes with `I15G` ?
Resp: 2.25

Req: // returns reported protein stability index for input `Q12C`
Resp: 1.58

Req: // lookup protein stability index for `K19W`
Resp: 1.57

Req: // lookup protein stability index for `C17R`
Resp: 2.14

Req: Quick one: protein stability index of `S20R` ?
Resp: 1.89

Req: Item under review: `E10D` . Reported protein stability index?
Resp: 2.36

Req: Given `C17F` , state its recorded protein stability index.
Resp: 1.39

Req: Can you share its protein stability index? I mean this variant: `I8R`
Resp: 1.9

Req: Could you tell me which protein stability index is on file for `Y4H` ?
Resp: 1.81

Req: Which protein stability index value belongs to `C17V` ?
Resp: 1.72

Req: Return reported protein stability index; argument: `K19A`
Resp: 1.72

Req: Look at this variant and give its reported protein stability index. `Q13G`
Resp: 2.09

Req: Reported protein stability index, variant `K14C` : ____
Resp: 2.14

Req: # query: protein stability index of entry `I8H`
Resp: 2.42

Req: Report protein stability index for `S3M` please.
Resp: 1.78

Req: Consider the variant shown here: `K14E` What is its recorded protein stability index?
Resp: 1.82

Req: Need protein stability index of `Q12T` , thanks.
Resp: 1.96

Req: Would you mind telling me what protein stability index value was observed for `R24S` ?
Resp: 2.07

Req: Form field: reported protein stability index of `C17H`
Resp: 2.31

Req: What measured protein stability index goes with `E9I` ?
Resp: 1.9

Req: Field request: protein stability index | item: `I15V`
Resp: 1.7

Req: # query: protein stability index of entry `N22A`
Resp: 2.31

Req: # query: protein stability index of entry `T7L`
Resp: 2

Req: Need protein stability index of `K6I` , thanks.
Resp: 2.52

Req: What measured protein stability index goes with `Q12V` ?
Resp: 1.98

Req: Endpoint output: protein stability index of `E9L` . Value?
Resp: 2.17

Req: Name the reported protein stability index value associated with the variant `S20M`
Resp: 1.63

Req: protein stability index lookup needed for `E10Q` , thanks.
Resp: 2.69

Req: Name the recorded protein stability index for `L11N` .
Resp: 2.09

Req: Quick check: protein stability index of `Q12W` ?
Resp: 1.91

Req: Fill in: protein stability index of `K6E` is ___
Resp: 1.93

Req: What protein stability index value was documented for this variant, `Q12D` ?
Resp: 2.07

Req: protein stability index lookup needed for `S20G` , thanks.
Resp: 1.38

Req: Would you mind telling me what protein stability index value was observed for `E9R` ?
Resp: 2.99

Req: Which protein stability index is reported for this variant? `L11H`
Resp: 2.1

Req: Which protein stability index value is on record for `E21Y` ?
Resp: 1.75

Req: For the variant shown here, `I15S` , give the reported protein stability index.
Resp: 1.93

Req: So what's the measured protein stability index for this one? `S3H`
Resp: 1.59

Req: # protein stability index lookup, item `I8Y`
Resp: 1.93

Req: Sample `E10L` — what was its protein stability index?
Resp: 1.63

Req: Requested read-out: protein stability index. Entry: `F5A`
Resp: 2.37

Req: Could you tell me which protein stability index is on file for `S3V` ?
Resp: 1.6

Req: I'd like to know its protein stability index. The variant in question is `Y4N`
Resp: 1.85

Req: Item under review: `Y4Q` . Reported protein stability index?
Resp: 1.58

Req: Look at this variant and give its reported protein stability index. `K6A`
Resp: 1.43

Req: Fill in the blank: the reported protein stability index of `F5Y` is ____.
Resp: 2.32

Req: Given `L16P` , state its recorded protein stability index.
Resp: 2.12

Req: Please look up its protein stability index: `L16W`
Resp: 2.1

Req: Tell me the measured protein stability index of `K14D` , please.
Resp: 1.68

Req: Reported protein stability index for `I15H` : what is it?
Resp: 2.52

Req: Would you kindly share the measured protein stability index for `L11P` ?
Resp: 2.06

Req: What does the data say about its protein stability index? Entry: `Q13A`
Resp: 1.79

Req: For the variant shown here, `K19Y` , give the reported protein stability index.
Resp: 1.84

Where do these numbers come from? They come from the supplement of paper PMC10567573.
